# Test system: 885724-159-R-J1-PDC KRAS PDC multicell spheroid viability
# Protocol description: Anticancer human tumor 885724-159-R-J1-PDC patient-derived pancreatic adenocarcinoma cell line growth inhibition [KRAS2]
# Condition parameters: second compound 10 µM; first compound 0.0316 µM; hits give low values
Readout name: viability, T/C (%)

COC(=O)c1ccc2c(C(=Nc3ccc(N(C)C(=O)CN4CCN(C)CC4)cc3)c3ccccc3)c(O)[nH]c2c1 + C=CC(=O)N1CCN(c2nc(=O)n(-c3c(C)ccnc3C(C)C)c3nc(-c4c(O)cccc4F)c(F)cc23)C(C)C1 :: 89.7
CCNC(=O)CC1N=C(c2ccc(Cl)cc2)c2cc(OC)ccc2-n2c(C)nnc21 (stereo not given) + C=CC(=O)N1CCN(c2nc(=O)n(-c3c(C)ccnc3C(C)C)c3nc(-c4c(O)cccc4F)c(F)cc23)C(C)C1 :: 78
CC1COCCN1c1cc(-c2ccnn2C)c2ccnc(-c3ccn[nH]3)c2n1 (stereo not given) + C=CC(=O)N1CCN(c2nc(=O)n(-c3c(C)ccnc3C(C)C)c3nc(-c4c(O)cccc4F)c(F)cc23)C(C)C1 :: 65.7
CC(C)NCC(C(=O)N1CCN(c2ncnc3c2C(C)CC3O)CC1)c1ccc(Cl)cc1 (stereo not given) + C=CC(=O)N1CCN(c2nc(=O)n(-c3c(C)ccnc3C(C)C)c3nc(-c4c(O)cccc4F)c(F)cc23)C(C)C1 :: 73.5
CC(=O)OC12COC1CC(O)C1(C)C(=O)C(O)C3=C(C)C(OC(=O)C(O)C(NC(=O)OC(C)(C)C)c4ccccc4)CC(O)(C(OC(=O)c4ccccc4)C21)C3(C)C (stereo not given) + CC1OCC2(CCN(c3cnc(Sc4ccnc(N)c4Cl)c(N)n3)CC2)C1N :: 84.5
COc1cc(Nc2ncc3c(n2)-c2ccc(Cl)cc2C(c2c(F)cccc2OC)=NC3)ccc1C(=O)O + CC1OCC2(CCN(c3cnc(Sc4ccnc(N)c4Cl)c(N)n3)CC2)C1N :: 76.5
CC(=O)Nc1cccc(-n2c(=O)n(C3CC3)c(=O)c3c(Nc4ccc(I)cc4F)n(C)c(=O)c(C)c32)c1 + CNCc1ccccc1-c1csc(C(C)Nc2nc(C)nc3cc(OC)c(OC)cc23)c1 :: 0.69
O=C(c1cc(Cc2n[nH]c(=O)c3ccccc23)ccc1F)N1CCN(C(=O)C2CC2)CC1 + CC1OCC2(CCN(c3cnc(Sc4ccnc(N)c4Cl)c(N)n3)CC2)C1N :: 78.3
COC(=O)c1ccc2c(C(=Nc3ccc(N(C)C(=O)CN4CCN(C)CC4)cc3)c3ccccc3)c(O)[nH]c2c1 + COc1cc2nc(C)nc(NC(C)c3cc(N)cc(C(F)(F)F)c3)c2cc1OC1CCOC1 :: 46.7
CC1OCC2(CCN(c3cnc(Sc4ccnc(N)c4Cl)c(N)n3)CC2)C1N (stereo not given) + COc1cc2nc(C)nc(NC(C)c3cc(N)cc(C(F)(F)F)c3)c2cc1OC1CCOC1 :: 22.7

---

# Test system: 885724-159-R-J1-PDC KRAS PDC multicell spheroid viability
# Protocol description: Anticancer human tumor 885724-159-R-J1-PDC cell line growth inhibition [KRAS2];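 also: spheroids exposed to agents for 7 days before readout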
# Condition parameters: second compound 0.1 µM; first compound 0.01 µM; hits give low values
Listing: viability, T/C of selected compounds
Readout name: viability, T/C

CC(=O)Nc1cccc(-n2c(=O)n(C3CC3)c(=O)c3c(Nc4ccc(I)cc4F)n(C)c(=O)c(C)c32)c1 + COc1cc2nc(C)nc(NC(C)c3cc(N)cc(C(F)(F)F)c3)c2cc1OC1CCOC1 :: 26.2%
CC(=O)Nc1cccc(-n2c(=O)n(C3CC3)c(=O)c3c(Nc4ccc(I)cc4F)n(C)c(=O)c(C)c32)c1 + C=CC(=O)N1CCN(c2nc(=O)n(-c3c(C)ccnc3C(C)C)c3nc(-c4c(O)cccc4F)c(F)cc23)C(C)C1 :: 30%
CN(C)C/C=C/C(=O)Nc1cc2c(Nc3ccc(F)c(Cl)c3)ncnc2cc1O[C@H]1CCOC1 + C=CC(=O)N1CCN(c2nc(=O)n(-c3c(C)ccnc3C(C)C)c3nc(-c4c(O)cccc4F)c(F)cc23)C(C)C1 :: 95.4%

---

# Tested on: 885724-159-R-J1-PDC KRAS PDC multicell spheroid viability
# Protocol description: Anticancer human tumor 885724-159-R-J1-PDC cell line growth inhibition [KRAS2]; active = viability on the fitted dose curve at most 10% of control; inactive = the rest;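 also: spheroids exposed to agents for 7 days before readout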
# Condition parameters: second compound 10 µM; first compound 0.1 µM
Outcome codes: yes (1) = active, no (0) = inactive

COc1cc(Nc2ncc3c(n2)-c2ccc(Cl)cc2C(c2c(F)cccc2OC)=NC3)ccc1C(=O)O + CC1OCC2(CCN(c3cnc(Sc4ccnc(N)c4Cl)c(N)n3)CC2)C1N :: no (0)
COc1cc(Nc2ncc3c(n2)-c2ccc(Cl)cc2C(c2c(F)cccc2OC)=NC3)ccc1C(=O)O + COc1cc2nc(C)nc(NC(C)c3cc(N)cc(C(F)(F)F)c3)c2cc1OC1CCOC1 :: no (0)
CC(=O)OC12COC1CC(O)C1(C)C(=O)C(O)C3=C(C)C(OC(=O)C(O)C(NC(=O)OC(C)(C)C)c4ccccc4)CC(O)(C(OC(=O)c4ccccc4)C21)C3(C)C (stereo not given) + C=CC(=O)N1CCN(c2nc(=O)n(-c3c(C)ccnc3C(C)C)c3nc(-c4c(O)cccc4F)c(F)cc23)C(C)C1 :: no (0)
CC1(C)CCC(CN2CCN(c3ccc(C(=O)NS(=O)(=O)c4ccc(NCC5CCOCC5)c([N+](=O)[O-])c4)c(Oc4cnc5[nH]ccc5c4)c3)CC2)=C(c2ccc(Cl)cc2)C1 + CC1OCC2(CCN(c3cnc(Sc4ccnc(N)c4Cl)c(N)n3)CC2)C1N :: no (0)
CCNC(=O)CC1N=C(c2ccc(Cl)cc2)c2cc(OC)ccc2-n2c(C)nnc21 (stereo not given) + CC1OCC2(CCN(c3cnc(Sc4ccnc(N)c4Cl)c(N)n3)CC2)C1N :: no (0)
CC1(C)CCC(CN2CCN(c3ccc(C(=O)NS(=O)(=O)c4ccc(NCC5CCOCC5)c([N+](=O)[O-])c4)c(Oc4cnc5[nH]ccc5c4)c3)CC2)=C(c2ccc(Cl)cc2)C1 + COc1cc2nc(C)nc(NC(C)c3cc(N)cc(C(F)(F)F)c3)c2cc1OC1CCOC1 :: no (0)
O=C(c1cc(Cc2n[nH]c(=O)c3ccccc23)ccc1F)N1CCN(C(=O)C2CC2)CC1 + CNCc1ccccc1-c1csc(C(C)Nc2nc(C)nc3cc(OC)c(OC)cc23)c1 :: yes (1)
CC(=O)OC12COC1CC(O)C1(C)C(=O)C(O)C3=C(C)C(OC(=O)C(O)C(NC(=O)OC(C)(C)C)c4ccccc4)CC(O)(C(OC(=O)c4ccccc4)C21)C3(C)C (stereo not given) + COc1cc2nc(C)nc(NC(C)c3cc(N)cc(C(F)(F)F)c3)c2cc1OC1CCOC1 :: no (0)
Cn1ncnc1[C@H]1c2n[nH]c(=O)c3cc(F)cc(c23)N[C@@H]1c1ccc(F)cc1 + CNCc1ccccc1-c1csc(C(C)Nc2nc(C)nc3cc(OC)c(OC)cc23)c1 :: yes (1)
COC(=O)c1ccc2c(C(=Nc3ccc(N(C)C(=O)CN4CCN(C)CC4)cc3)c3ccccc3)c(O)[nH]c2c1 + C=CC(=O)N1CCN(c2nc(=O)n(-c3c(C)ccnc3C(C)C)c3nc(-c4c(O)cccc4F)c(F)cc23)C(C)C1 :: no (0)
CCN1CCN(Cc2ccc(Nc3ncc(F)c(-c4cc(F)c5nc(C)n(C(C)C)c5c4)n3)nc2)CC1 + COc1cc2nc(C)nc(NC(C)c3cc(N)cc(C(F)(F)F)c3)c2cc1OC1CCOC1 :: no (0)
CCNC(=O)CC1N=C(c2ccc(Cl)cc2)c2cc(OC)ccc2-n2c(C)nnc21 (stereo not given) + COc1cc2nc(C)nc(NC(C)c3cc(N)cc(C(F)(F)F)c3)c2cc1OC1CCOC1 :: no (0)
CCNC(=O)CC1N=C(c2ccc(Cl)cc2)c2cc(OC)ccc2-n2c(C)nnc21 (stereo not given) + CNCc1ccccc1-c1csc(C(C)Nc2nc(C)nc3cc(OC)c(OC)cc23)c1 :: yes (1)
COc1cc2nccc(Oc3ccc(NC(=O)C4(C(=O)Nc5ccc(F)cc5)CC4)cc3)c2cc1OC + CNCc1ccccc1-c1csc(C(C)Nc2nc(C)nc3cc(OC)c(OC)cc23)c1 :: yes (1)
CN(C)C/C=C/C(=O)Nc1cc2c(Nc3ccc(F)c(Cl)c3)ncnc2cc1O[C@H]1CCOC1 + COc1cc2nc(C)nc(NC(C)c3cc(N)cc(C(F)(F)F)c3)c2cc1OC1CCOC1 :: no (0)
COC(=O)c1ccc2c(C(=Nc3ccc(N(C)C(=O)CN4CCN(C)CC4)cc3)c3ccccc3)c(O)[nH]c2c1 + CC1OCC2(CCN(c3cnc(Sc4ccnc(N)c4Cl)c(N)n3)CC2)C1N :: no (0)
CC1COCCN1c1cc(-c2ccnn2C)c2ccnc(-c3ccn[nH]3)c2n1 (stereo not given) + COc1cc2nc(C)nc(NC(C)c3cc(N)cc(C(F)(F)F)c3)c2cc1OC1CCOC1 :: no (0)
CN(C)C/C=C/C(=O)Nc1cc2c(Nc3ccc(F)c(Cl)c3)ncnc2cc1O[C@H]1CCOC1 + CC1OCC2(CCN(c3cnc(Sc4ccnc(N)c4Cl)c(N)n3)CC2)C1N :: no (0)
COc1cc(Nc2ncc3c(n2)-c2ccc(Cl)cc2C(c2c(F)cccc2OC)=NC3)ccc1C(=O)O + C=CC(=O)N1CCN(c2nc(=O)n(-c3c(C)ccnc3C(C)C)c3nc(-c4c(O)cccc4F)c(F)cc23)C(C)C1 :: no (0)
CC(C)NCC(C(=O)N1CCN(c2ncnc3c2C(C)CC3O)CC1)c1ccc(Cl)cc1 (stereo not given) + C=CC(=O)N1CCN(c2nc(=O)n(-c3c(C)ccnc3C(C)C)c3nc(-c4c(O)cccc4F)c(F)cc23)C(C)C1 :: no (0)
